All values here come from the supplement of paper PMC4858399.

Attribute: lowest effective concentration
- Test system: Caenorhabditis elegans N2
- Assay Info: lowest effective concentration for larval growth inhibition (size below effect threshold); higher = less potent
- Study Conditions: exposure time 48 h
Measurement Name: lowest effective concentration (µM)

| Molecule | Target Or Test System | Measurement Name | Value Unit | Censoring Operator | Experimental Value |
| --- | --- | --- | --- | --- | --- |
| CC(O)CN(CCN(CC(C)O)CC(C)O)CC(C)O (stereo not given) [N,N,N',N'-Tetrakis(2-Hydroxypropyl)ethylenediamine] | Caenorhabditis elegans N2 | lowest effective concentration | µM | = | 50 |
| CCCCOC(=O)C(C)Oc1ccc(Oc2ccc(C(F)(F)F)cn2)cc1 (stereo not given) | Caenorhabditis elegans N2 | lowest effective concentration | µM | = | 100 |
| O=P(OCCCl)(OCCCl)OCCCl [Tris(2-chloroethyl) phosphate] | Caenorhabditis elegans N2 | lowest effective concentration | µM | > | 200 |
| CC(C)(C)OOC(C)(C)CCC(C)(C)OOC(C)(C)C | Caenorhabditis elegans N2 | lowest effective concentration | µM | = | 200 |
| CCCCC(O)(Cn1cncn1)c1ccc(Cl)cc1Cl (stereo not given) | Caenorhabditis elegans N2 | lowest effective concentration | µM | = | 100 |

* * *

- Tested on: Caenorhabditis elegans N2
- Assay Info: mean nematode size ln(EXT) after 48 h, plate-adjusted (DMSO control set to 6) (ln(EXT), control-adjusted); higher = larger nematodes / less growth inhibition
- Study Conditions: 100 µM; exposure time 48 h
Counter-ions that a name gives are not always drawn.
Measurement Name: mean nematode size ln(EXT) (ln)

| Compound | Experimental Value |
| --- | --- |
| O=C(O)CN(CC(=O)O)CC(=O)O [Nitrilotriacetic acid] | 5.88 |
| OCC(CO)(CBr)CBr [2,2-Bis(bromomethyl)-1,3-propanediol] | 5.93 |
| CCCOC(=O)c1ccc(O)cc1 [Propylparaben] | 5.87 |
| CCOP(=O)(OCC)Oc1cc(C)nc(C(C)C)n1 [Diazoxon] | 6.1 |
| CN(C)NC(=O)CCC(=O)O [Daminozide] | 6.01 |
| Cc1[nH]c(=O)n(C(C)(C)C)c(=O)c1Cl [Terbacil] | 5.87 |
| OCCCl [2-Chloroethanol] | 5.95 |
| CC[C@@H]1C[C@H](N(Cc2cc(C(F)(F)F)cc(C(F)(F)F)c2)C(C)=O)c2cc(C(F)(F)F)ccc2N1C(=O)OC(C)C | 5.79 |
| O=C(O)c1ccccc1-n1cc(C(=O)O)c(=O)c2cc(Nc3c(F)cc(F)cc3Cl)c(Cl)cc21 | 5.85 |
| O=c1n(CC2CO2)c(=O)n(CC2CO2)c(=O)n1CC1CO1 (stereo unspecified) [Triglycidyl isocyanurate] | 5.42 |
| CC(CO)OC(C)CO.CC(O)COCC(C)O (stereo unspecified) [Dipropylene glycol] | 5.66 |
| COC(=O)CC(=O)OC [Dimethyl malonate] | 5.89 |
| CCCCCCCCCCCCCO [1-Tridecanol] | 3.5 |
| O=[N+]([O-])c1ccc(O)cc1 [Sodium p-nitrophenolate] | 5.81 |
| CCc1nn(C2CCCCC2)c2cc(C3(C#N)CCC(C(=O)O)CC3)ccc12 (stereo unspecified) | 5.67 |
| O=C(O)C(F)(F)C(F)(F)C(F)(F)C(F)(F)C(F)(F)F [Perfluorohexanoic acid] | 5.73 |
| Cc1ccccc1O [2-Methylphenol] | 5.94 |
| CC(C)(C)c1cc(O)ccc1O [tert-Butylhydroquinone] | 5.41 |
| CN(C)c1ccccc1 [N,N-Dimethylaniline] | 6.02 |
| Nc1ccn([C@@H]2O[C@H](CO)[C@@H](O)[C@@H]2O)c(=O)n1 [Cytarabine HCl] | 6.03 |
| CCNC(=O)NC(=O)/C(C#N)=N/OC [Cymoxanil] | 5.58 |
